# Tested on: E. coli ATTC 8739
# Format: cell-based, Escherichia coli
# Measurement conditions: ATTC 8739
Bridge positions count the residues as written; N and C are the ends. Square brackets hold non-standard residues; d marks the D form. Peptide text beside a SMILES is read from it. * marks the point of attachment. Lauroyl = CCCCCCCCCCCC(=O)*; Decanoyl = CCCCCCCCCC(=O)*; Nonanoyl = CCCCCCCCC(=O)*; Nle = CCCC[C@H](N)C(=O)O; Dab = NCC[C@H](N)C(=O)O
Assignment: determine reported MIC E. coli for the given molecules.
Please append the unit to your numeric answer.

Challenge: Quick check: MIC E. coli of CCCCCCCCC(=O)N[C@@H](CCCNC(=N)N)C(=O)N[C@H](C(=O)N[C@@H](CCN)C(=O)N[C@H]1CSSC[C@@H](C(N)=O)NC(=O)[C@H](CCN)NC(=O)[C@H](CCN)NC(=O)[C@H](CC(C)C)NC(=O)[C@@H](Cc2ccccc2)NC(=O)[C@H](CCN)NC1=O)[C@@H](C)O [Analog 2] (Nonanoyl-RT[Dab]C[Dab][dF]L[Dab][Dab]C-NH2; disulfide 4-10) ?
Response given: 8 µg/mL

Challenge: Quick check: MIC E. coli of CCCCCCCCCC(=O)N[C@@H](CCN)C(=O)N[C@H](C(=O)N[C@@H](CCN)C(=O)N[C@H]1CSSC[C@H](C(N)=O)NC(=O)[C@H](CCN)NC(=O)[C@H](CCN)NC(=O)[C@H](CCCC)NC(=O)[C@@H](Cc2ccccc2)NC(=O)[C@H](CCN)NC1=O)[C@@H](C)O [Analog 38] (Decanoyl-[Dab]T[Dab]C[Dab][dF][Nle][Dab][Dab][dC]-NH2; disulfide 4-10) ?
Response given: 2 µg/mL

Challenge: Quick check: MIC E. coli of CCCCCCCCCCCC(=O)N[C@@H](CCN)C(=O)N[C@H](C(=O)N[C@@H](CCN)C(=O)N[C@H]1CSSC[C@H](C(N)=O)NC(=O)[C@H](CCN)NC(=O)[C@H](CCN)NC(=O)[C@H](CCCC)NC(=O)[C@@H](Cc2ccccc2)NC(=O)[C@H](CCN)NC1=O)[C@@H](C)O [Analog 39] (Lauroyl-[Dab]T[Dab]C[Dab][dF][Nle][Dab][Dab][dC]-NH2; disulfide 4-10) ?
Response given: 4 µg/mL

These measurements were taken from paper PMC4603705.
